assay-remarks: soluble on expression in E. coli; label from the status in PepcDB or PDB records
measurement-kind: soluble on expression in E. coli

* SAEKQAGLVGEPDPEGSSPGTSESWNYDSNCVFCRVAAGQEPKTELFHCENEDLVCFKDIKPAALYHYLVVPKKHIGSCKDLNKDHIEMVESMVAAGKTMLERNNFTDFTDVRMGFHVPPFCSISHLHLHVIAPVKEFGFLSKLVYRQDSYWFVTVDYLLEKLRK | soluble
* MYGEWGMGNILMMFHVYLVQGFRSEHGPVKDFSFERSSRSMLERSEQQIRAASSLEELLQIAHSEDWKLWRCRLKLKSLASMDSRSASHRSTRFAATFYDL | not soluble
* MSKLSFRARALDASKPLPVFRCEDLPDLHEYASINRAVPQMPTGMEKEEESVMLRFFSLYFYRLYPPSTRSLLCASLHKMAAMFLPDGNGDGAHTSPLVIPHSGWLVGLIRISL | not soluble
* MSKNIVVAPSILSADFSRLGEEIKAVDEAGADWIHVDVMDGRFVPNITIGPLIVDAIRPLTKKTLDVHLMIVEPEKYVEDFAKAGADIISVHVEHNASPHLHRTLCQIRELGKKAGAVLNPSTPLDFLEYVLPVCDLILIMSVNPGFGGQSFIPEVLPKIRALRQMCDERGLDPWIEVDGGLKPNNTWQVLEAGANAIVAGSAVFNAPNYAEAIAGVRNSKRPEPQLATV | soluble

====

assay-remarks: soluble on expression in E. coli; label from the status in PepcDB or PDB records
measurement-kind: soluble on expression in E. coli

• MGSDKIHHHHHHMNTDDILFSYGEEDIPLKALSFPIFETTNFYFDSFDEMSKALRNGDYEFVYKRGSNPTTRLVEKKLAALEECEDARLVASGMSAISLSILHFLSSGDHVVCVDEAYSWAKKFFNYLSKKFDIEVSYVPPDAERIVEAITKKTKLIYLESPTSMRMKVIDIRKVTEAAGELKIKTVIDNTWASPIFQKPKLLGVDVVVHSATKYISGHGDVMAGVIAGDVEDMKNIFVDEYKNIGPVLSPIEAWLILRGLRTLELRMKKHYENALVVSDFLMDHPKVLEVNYPMNPRSPQYELASSQMSGGSGLMSFRLKTDSAEKVKEFVESLRVFRMAVSWGSHENLVVPRVAYGDCPKKDVNLIRIHVGLGDPEKLVEDLDQALKKI = not soluble
• MLPQRLKKAITDNPKKLGNLIDLVNLPSTLRNFVGQSQISRLGCFMRVWSYIKTNNLQDPKNKNVVICDEKLKSILLGKQRVELVDLPSLIKLHFPKEQKKNSQKI = not soluble
• MERVLITGGAGFIGSHLVDDLQQDYDVYVLDNYRTGKRENIKSLADDHVFELDIREYDAVEQIMKTYQFDYVIHLAALVSVAESVEKPILSQEINVVATLRLLEIIKKYNNHIKRFIFASSAAVYGDLPDLPKSDQSLILPLSPYAIDKYYGERTTLNYCSLYNIPTAVVKFFNVFGPRQDPKSQYSGVISKMFDSFEHNKPFTFFGDGLQTRDFVYVYDVVQSVRLIMEHKDAIGHGYNIGTGTFTNLLEVYRIIGELYGKSVEHEFKEARKGDIKHSYADISNLKALGFVPKYTVETGLKDYFNFEVDNIEEVTAKEVEMS = not soluble
• SVSGLAILYLRRRRAPLARLRQAIQRCEFFVCYQPIVSLSDGRCVGAEALVRWRQQDGTLILPDQFIPLAERSGLILPITDQVIAASMRELGPLLVADRSLHIAINVSVKDIESGRLLDVLALALQDTGLYRKQLWIEATERSFMDARAAREHIVRLREAGYAVVIDDFGTGYSNLQYLQQLPLDALKIDKSFIDTVGRDVTNTAVASHIIDIAKELGMRTIAEGVEREEQLVYLRARGVDMAQGWLFSSP = not soluble
• SNAAKPLPKEMEDFVQSSGENGVVVFSLGSMVSNMTEERANVIASALAQIPQKVLWRFDGNKPDTLGLNTRLYKWIPQNDLLGHPKTRAFITHGGANGIYEAIYHGIPMVGIPLFADQPDNIAHMKARGAAVRVDFNTMSSTDLLNALKRVINDPSYKENVMKLSRIQHD = soluble
• MMALDDTVTIKPIRAEHVESFHRALDAVSRERKYLSFLEAPPLEAVRAFVLDMIENDHPQFVAIADGDVIGWCDIRRQDRATRAHCGTLGMGILPAYRNKGLGARLMRRTLDAAHEFGLHRIELSVHADNARAIALYEKIGFAHEGRARDAVSIDGHYIDSLNMAIIFGN = soluble
• MGSDKIHHHHHHMHSAALLQKVDELPRLPKAIAELLDVVNNEDSTVKAVSEKLSHDPVLSARVLRLANSARFGCSREVGTIDDAVVRLGMQTLRTLVIASAVVGAVPKVEGFDLADFWGNTFEVAIICQELAKRLGTLPEEAFTCGILHSIGELLIVNGDPAVAATISAAVADGADRNLMEKELLGYDNAEIGALLAQSWKFTPHLVKGIQFQNHPKSAEPYSKLAGMLAMAKQIAADWDKIPDDERTSWLAQINILAGIKVDLGGLAEKLAKMHGQGMEMGKQLA = not soluble
• MAFGRRTGKDGGKRKAGHAPVQPADEHVRPEDTVVASAAAASGVEDQEELQGPFDIDDFDDPSVAVLARLDLGSVLIPMPAAGQVQVELTESGVPSAVWVITPNGRYSIAAYAAPKTGGLWREVAGELADSLRKDSAKVSIKDGPWGREVIGIAAGVVRFIGVDGYRWMIRCVVNGPQETVDALTEEAREALADTVVRRGDTPLPVRTPLPVHLPEPMAAQLREAAAAQADTQRQAAAGVARRGAQGSAMQQLRSTTGG = soluble
• GSGSEPAVCEMCGIVGTREAFFSKTKRFCSVSCSRSYSSNSKK = soluble
• MPLTPADVHNVAFNKPPIGKRGYNEDEVDQFLDLVEDALVQFQEENEDLKQQVEELEAQVAGGTSSAASSSTAGAATAAASKSVDEAALRKEIEEKLRSEYASKLDDASKAAQKAQNDAKSAQDQLQRAQADAKAARDEAEKAKAEAKSAASSSTTKAAAVGAVGAGTGAAVATGAANVDTHMQAAKVLGLAQEMADRLTSEARSESKSMLDEAREAAEKQIEEANSTSNRTLEDARANAEKQIAEAQNRADTLVNEADAKAKNLVSEAEKKSAATLAASTSRAEAQIRQAEDKANALQADAERKHTETMAAVKEQQNALETRIAELQTFEREYRTRLKSLLEGQLEELNARGSSAPTNNKPSGE = not soluble
• MSLRSMFMYKSHIPEDCEEEAQITAAKLILLVDDDPVFRRMTKGYLQKYGYQVIEAENGLDGLRKLRDHEPDLILCDLSMPVLNGIEFVEEVSSSYPSLPLVVVSATEEMADVAKALRFGIKDFLPKPITNHSHLASAIEKVLANDDHQRDFASCWYGADRQGSIPEEQELHWHLQYLKDNPNAAKELLEALLPEKDSQLGSWKCSYRLLQSAELMPLVFDYAWLMNGQFVFYVVDAASHRECGAASTLLVRALFHDYLRNLRNFSVELKDLAEIIERGIHCSECIGKVSALFGVADLADGTLSLLPAGLDCQWSNGYVHNRITSGVQLGDNSLRNFITKDLPIRAACQISLSKPSAYSFTLDLYQGEGHHHHHH = soluble
